Tested on: Escherichia coli TOP10
Assay: shrunken log2 fold change of peptide-encoding DNA abundance (4.5 h post-induction vs induction); higher = less antimicrobial activity (less host growth inhibition)
Conditions: time post-induction: 4.5 h; library: site-saturation at positions 5, 18, 19, 20
quantity.kind: shrunken log2 fold change
# answer = number (no unit)

Below are worked cases with known answers.
          residue_sequence          assayed_target  numeric_result
0  RRIRLRPPRLPRPRPRPGTWPRP  Escherichia coli TOP10          0.0714
1  RRIRCRPPRLPRPRPRPMDWPRP  Escherichia coli TOP10         -0.0172
2  RRIRDRPPRLPRPRPRPKQVPRP  Escherichia coli TOP10          -0.185

**Query** Name the reported shrunken log2 fold change value associated with the sequence RRIRQRPPRLPRPRPRPNHIPRP
**Result** -0.526

**Query** Quick one: RRIRCRPPRLPRPRPRPWNLPRP
**Result** -0.19

**Query** Quick one: RRIRERPPRLPRPRPRPSDFPRP
**Result** -0.149

**Query** Quick one: RRIRARPPRLPRPRPRPTTAPRP
**Result** 0.514

**Query** Quick one: RRIRTRPPRLPRPRPRPQMAPRP
**Result** -0.177

---

Test system: Escherichia coli TOP10
Experiment: shrunken log2 fold change of peptide-encoding DNA abundance (4.5 h post-induction vs induction); higher = less antimicrobial activity (less host growth inhibition)
Details: time post-induction: 4.5 h; library: site-saturation at positions 5, 18, 19, 20
quantity.kind: shrunken log2 fold change
# answer = number (no unit)

>>> df
          residue_sequence              quantity_kind  numeric_result
0  RRIRARPPRLPRPRPRPMPDPRP  shrunken log2 fold change            0.74
1  RRIRMRPPRLPRPRPRPWRWPRP  shrunken log2 fold change           0.205
2  RRIRKRPPRLPRPRPRPLFNPRP  shrunken log2 fold change          0.0323
3  RRIRRRPPRLPRPRPRPREPPRP  shrunken log2 fold change            1.04
4  RRIRYRPPRLPRPRPRPLLCPRP  shrunken log2 fold change          -0.287
5  RRIRWRPPRLPRPRPRPGINPRP  shrunken log2 fold change          0.0653
6  RRIRVRPPRLPRPRPRPTFVPRP  shrunken log2 fold change          0.0147

Could you now look at the following sequence, please?
**Query** Requested read-out shrunken log2 fold change, target or system Escherichia coli TOP10, entry RRIRIRPPRLPRPRPRPKSVPRP
**Result** -0.0925

---

Tested on: Escherichia coli TOP10
Test: shrunken log2 fold change of peptide-encoding DNA abundance (4.5 h post-induction vs induction); higher = less antimicrobial activity (less host growth inhibition)
Conditions: time post-induction: 4.5 h; library: site-saturation at positions 5, 18, 19, 20
Reported shrunken log2 fold change values for the following sequences.
# answer = number (no unit)

          residue_sequence          assayed_target  numeric_result
0  RRIRYRPPRLPRPRPRPCMLPRP  Escherichia coli TOP10           -1.02
1  RRIRLRPPRLPRPRPRPIYVPRP  Escherichia coli TOP10         -0.0939
2  RRIRPRPPRLPRPRPRPTYAPRP  Escherichia coli TOP10           0.133
3  RRIRARPPRLPRPRPRPSTCPRP  Escherichia coli TOP10          0.0421
4  RRIRPRPPRLPRPRPRPPSWPRP  Escherichia coli TOP10            0.54

**Query** Name the reported shrunken log2 fold change value associated with the sequence RRIRHRPPRLPRPRPRPHKEPRP
**Result** -0.00832

**Query** Quick one: RRIRYRPPRLPRPRPRPLPNPRP
**Result** -0.296

**Query** Quick one: RRIRDRPPRLPRPRPRPHFDPRP
**Result** 0.141

---

Test system: Escherichia coli TOP10
Experiment: shrunken log2 fold change of peptide-encoding DNA abundance (4.5 h post-induction vs induction); higher = less antimicrobial activity (less host growth inhibition)
Details: time post-induction: 4.5 h; library: site-saturation at positions 5, 18, 19, 20
quantity.kind: shrunken log2 fold change
# answer = number (no unit)

Below are worked cases with known answers.
          residue_sequence          assayed_target  numeric_result
0  RRIRTRPPRLPRPRPRPDWIPRP  Escherichia coli TOP10         -0.0498
1  RRIRDRPPRLPRPRPRPEWHPRP  Escherichia coli TOP10           0.623
2  RRIRKRPPRLPRPRPRPLDLPRP  Escherichia coli TOP10          -0.203
3  RRIRHRPPRLPRPRPRPNFRPRP  Escherichia coli TOP10          -0.144
4  RRIRNRPPRLPRPRPRPPMIPRP  Escherichia coli TOP10           0.102

**Query** Name the reported shrunken log2 fold change value associated with the sequence RRIRWRPPRLPRPRPRPMCPPRP
**Result** -0.232

---

Test system: Escherichia coli TOP10
Test: shrunken log2 fold change of peptide-encoding DNA abundance (4.5 h post-induction vs induction); higher = less antimicrobial activity (less host growth inhibition)
Conditions: time post-induction: 4.5 h; library: site-saturation at positions 5, 18, 19, 20
quantity.kind: shrunken log2 fold change
# answer = number (no unit)

**Query** Name the reported shrunken log2 fold change value associated with the sequence RRIRARPPRLPRPRPRPTTDPRP
**Result** 0.745

**Query** Quick one: RRIRERPPRLPRPRPRPYKGPRP
**Result** -0.0341

**Query** Quick one: RRIRKRPPRLPRPRPRPYGTPRP
**Result** -0.272

**Query** Quick one: RRIRHRPPRLPRPRPRPRYKPRP
**Result** -0.424

**Query** Quick one: RRIRRRPPRLPRPRPRPYLVPRP
**Result** -0.0711

**Query** Quick one: RRIRNRPPRLPRPRPRPCWQPRP
**Result** -0.0118

**Query** Quick one: RRIRTRPPRLPRPRPRPLMQPRP
**Result** 0.19

---

System: Escherichia coli TOP10
Experiment: shrunken log2 fold change of peptide-encoding DNA abundance (4.5 h post-induction vs induction); higher = less antimicrobial activity (less host growth inhibition)
Conditions: time post-induction: 4.5 h; library: site-saturation at positions 5, 18, 19, 20
Assign class by shrunken log2 fold change: not lower than -0.02 means Yes; lower than -0.02 means No.

# count of solved cases: 5
          residue_sequence  category_label
0  RRIRFRPPRLPRPRPRPTDQPRP              No
1  RRIRNRPPRLPRPRPRPRIMPRP              No
2  RRIRNRPPRLPRPRPRPRGFPRP             Yes
3  RRIRDRPPRLPRPRPRPYGHPRP             Yes
4  RRIRDRPPRLPRPRPRPFFRPRP             Yes

**Query** Determine whether this sequence has shrunken log2 fold change no lower than -0.02: RRIRLRPPRLPRPRPRPVKLPRP
**Result** No

**Query** Quick one: RRIRKRPPRLPRPRPRPRLHPRP
**Result** Yes

---

Test system: Escherichia coli TOP10;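 further: peptides expressed intracellularly from a pBAD plasmid library in pooled LB shake-flask culture, induced with 0.3% L-arabinose, DNA abundance read by NGS, three biological replicates, DESeq2 with apeglm shrinkage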
Test: shrunken log2 fold change of peptide-encoding DNA abundance (4.5 h post-induction vs induction); higher = less antimicrobial activity (less host growth inhibition)
Details: time post-induction: 4.5 h; library: site-saturation at positions 5, 18, 19, 20
Classification by shrunken log2 fold change | ranges: band A = under -0.1, band B = from -0.1 up to 0.04, band C = 0.04 and over

# count of solved cases: 5
>>> print(df.to_string())
          residue_sequence          assayed_target  category_label
0  RRIRERPPRLPRPRPRPCPQPRP  Escherichia coli TOP10          band A
1  RRIRQRPPRLPRPRPRPCERPRP  Escherichia coli TOP10          band B
2  RRIRIRPPRLPRPRPRPFIWPRP  Escherichia coli TOP10          band A
3  RRIRLRPPRLPRPRPRPAAWPRP  Escherichia coli TOP10          band C
4  RRIRQRPPRLPRPRPRPQFEPRP  Escherichia coli TOP10          band B

**Query** Kindly state the category for this sequence: RRIRHRPPRLPRPRPRPKNWPRP
**Result** band C

**Query** Quick one: RRIRRRPPRLPRPRPRPVVNPRP
**Result** band C

**Query** Quick one: RRIRHRPPRLPRPRPRPTDTPRP
**Result** band A

**Query** Quick one: RRIRNRPPRLPRPRPRPQGPPRP
**Result** band B

**Query** Quick one: RRIRGRPPRLPRPRPRPFRIPRP
**Result** band A
